# PROCEDURE_TEXT: Biodistribution studies in NMRI mice
# Format: in vivo
# TEST_PARAMETERS: i.v., 60 min p.i.
ASSAY_READOUT: Percentage of ID, spleen + pancreas
Please answer using a numeric value trailed by its unit.

**Query** What value of Percentage of ID, spleen + pancreas has been reported for the following compound? [11CH3]Oc1ccc(S(N)(=O)=O)cc1 [[^11C]-(6), 4-[^11C]methoxybenzene sulfonamide]
**Result** 2.3 ± 0.6 % ID

**Query** Any idea what Percentage of ID, spleen + pancreas was measured for NS(=O)(=O)c1ccc(OCC[18F])cc1 [[^18F]-(5)] ?
**Result** 0.9 ± 0.4 % ID

**Query** Find the recorded Percentage of ID, spleen + pancreas belonging to NS(=O)(=O)c1ccc(CCNC(=O)c2ccc(OCC[18F])cc2)cc1 [[^18F]-(3)] and report it.
**Result** 0.9 ± 0.3 % ID

**Query** Give the measured Percentage of ID, spleen + pancreas of [11CH3]Oc1ccc(C(=O)NCCc2ccc(S(N)(=O)=O)cc2)cc1 [[^11C]-(4)] .
**Result** 0.8 ± 0.1 % ID

Recorded values, source paper PMC3561128.
